Target: human α2β2γ1 complex, CBS4 mutant (I312G) (Homo sapiens, UniProt P54619+P54646, I312G)
Construct: made in house; host or cells: Escherichia coli
Sequence (P54619 whole entry I312G): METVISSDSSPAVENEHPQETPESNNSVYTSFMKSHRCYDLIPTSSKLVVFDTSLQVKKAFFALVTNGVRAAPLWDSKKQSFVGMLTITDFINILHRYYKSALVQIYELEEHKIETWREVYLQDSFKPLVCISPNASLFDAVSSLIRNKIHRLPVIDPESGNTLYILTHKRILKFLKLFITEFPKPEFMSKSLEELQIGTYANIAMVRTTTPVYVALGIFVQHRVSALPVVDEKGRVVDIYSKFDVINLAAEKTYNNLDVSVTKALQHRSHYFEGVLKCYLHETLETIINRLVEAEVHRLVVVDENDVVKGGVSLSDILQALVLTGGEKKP
Sequence (P54646 whole entry): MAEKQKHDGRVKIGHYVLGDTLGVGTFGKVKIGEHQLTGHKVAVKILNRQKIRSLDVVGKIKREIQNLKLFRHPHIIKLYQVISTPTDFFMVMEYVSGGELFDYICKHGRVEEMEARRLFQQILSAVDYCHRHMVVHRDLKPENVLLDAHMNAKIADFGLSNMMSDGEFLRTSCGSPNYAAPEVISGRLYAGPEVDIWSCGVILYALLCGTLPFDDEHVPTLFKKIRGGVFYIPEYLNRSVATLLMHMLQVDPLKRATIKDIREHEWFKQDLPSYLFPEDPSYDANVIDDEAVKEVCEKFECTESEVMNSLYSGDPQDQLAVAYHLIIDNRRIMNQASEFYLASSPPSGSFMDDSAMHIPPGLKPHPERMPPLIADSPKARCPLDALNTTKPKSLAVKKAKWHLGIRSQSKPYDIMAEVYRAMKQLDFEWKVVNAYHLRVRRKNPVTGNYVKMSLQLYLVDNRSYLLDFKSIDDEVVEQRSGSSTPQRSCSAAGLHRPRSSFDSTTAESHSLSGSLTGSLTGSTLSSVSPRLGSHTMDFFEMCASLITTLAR
Sequence (O43741 whole entry partner): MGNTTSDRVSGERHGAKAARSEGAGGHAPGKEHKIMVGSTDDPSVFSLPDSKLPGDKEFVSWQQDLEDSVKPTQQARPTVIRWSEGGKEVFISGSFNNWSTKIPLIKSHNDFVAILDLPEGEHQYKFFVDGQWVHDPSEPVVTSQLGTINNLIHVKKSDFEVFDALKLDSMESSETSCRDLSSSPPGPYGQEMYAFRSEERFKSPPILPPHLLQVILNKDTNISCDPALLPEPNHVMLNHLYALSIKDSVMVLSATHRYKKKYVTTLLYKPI
Test: Allosteric activation of CBS4 mutant human α2β2γ1 AMPK complex
Format: biochemical
Details: α2β2γ1 CBS4 mutant, 0.2 mM ATP
Description: To study allosteric activation with a more well-defined AMPK complex, and to study the effects of mutations in individual adenine nucleotide-binding sites on the γ subunit, we expressed a human α2β2γ1 complex in Escherichia coli and purified it utilizing the polyhistidine tag at the N-terminus of the α2 subunit. […] AMPK assays measured the transfer of radioactivity from [γ-^33P]ATP to a peptide substrate, which was separated from unreacted ATP by binding to P81 paper. […]
Hi there, I'd appreciate the recorded IC50 for every entry that follows.
Supply the numeric figure in µM, leaving out any unit text.

q: Record Nc1ncnc2c1ncn2[C@@H]1O[C@H](COP(=O)(O)OP(=O)(O)O)[C@@H](O)[C@H]1O : what is its IC50 with human α2β2γ1 complex, CBS4 mutant (I312G) (Homo sapiens, UniProt P54619+P54646, I312G)?
a: 780

q: Record Nc1ncnc2c1ncn2[C@@H]1O[C@H](COP(=O)(O)O)[C@@H](O)[C@H]1O : what is its IC50 with human α2β2γ1 complex, CBS4 mutant (I312G) (Homo sapiens, UniProt P54619+P54646, I312G)?
a: 3300
